TARGET_ENTITY: T1, Extracellular domain (ECD) of the canine IL-4 receptor alpha-V5 epitope-AviTag-His Tag (canine)
T1 construct: monomeric form isolated by size exclusion; also called canine IL-4RA-V5-Avi-His; canine IL-4RA
T1 chain: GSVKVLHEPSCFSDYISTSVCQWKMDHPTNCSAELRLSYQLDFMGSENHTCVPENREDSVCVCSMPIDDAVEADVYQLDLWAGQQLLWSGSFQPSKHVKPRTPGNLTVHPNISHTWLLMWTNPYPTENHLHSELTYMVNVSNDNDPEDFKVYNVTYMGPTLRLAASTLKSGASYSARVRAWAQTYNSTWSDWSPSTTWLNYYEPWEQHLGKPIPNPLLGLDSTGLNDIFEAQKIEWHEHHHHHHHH
ASSAY_METHOD_TEXT: SPR, Fab-SASA captured on BSA;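 note: biacore T200 SPR, Fab-SASA variants from E. coli conditioned medium captured on BSA-coated CM5 chip, canine IL-4RA injected 120 s then 420 s dissociation, 1:1 model fit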
Mark N for koff values under 0.0007 s⁻¹, and Y for everything at or above.

Q. Please tell me: is the binder TB640_005 Fab-SASA VL-L30T (Fab, V domains shown, not shown: SASA tag then His-tag) VH: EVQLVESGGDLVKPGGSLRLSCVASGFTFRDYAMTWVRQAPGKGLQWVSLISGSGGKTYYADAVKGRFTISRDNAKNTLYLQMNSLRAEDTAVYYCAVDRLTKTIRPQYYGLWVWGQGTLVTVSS VL: DIVMTQTPLSLSVSPGETASISCRSSQSLTYSIGYNYLDWYLQKPGQSPQGLIYLGSKRASGVPDRFSGSGSGTDFTLRISRVEANDTGVYYCMQGLQSPLTFGQGTKLEIKR at or over 0.0007 s⁻¹ in terms of koff?
A. N

Q. Consider next the binder TB640_005 Fab-SASA VH-K103R (Fab, V domains shown, not shown: SASA tag then His-tag) VH: EVQLVESGGDLVKPGGSLRLSCVASGFTFRDYAMTWVRQAPGKGLQWVSLISGSGGKTYYADAVKGRFTISRDNAKNTLYLQMNSLRAEDTAVYYCAVDRLTRTIRPQYYGLWVWGQGTLVTVSS VL: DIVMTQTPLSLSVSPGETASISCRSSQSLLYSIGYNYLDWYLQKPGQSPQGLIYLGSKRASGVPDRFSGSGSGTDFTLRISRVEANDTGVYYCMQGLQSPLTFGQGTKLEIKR in the same way.
A. N

Q. And TB640_005 Fab-SASA VH-V114G (Fab, V domains shown, not shown: SASA tag then His-tag) VH: EVQLVESGGDLVKPGGSLRLSCVASGFTFRDYAMTWVRQAPGKGLQWVSLISGSGGKTYYADAVKGRFTISRDNAKNTLYLQMNSLRAEDTAVYYCAVDRLTKTIRPQYYGLWGWGQGTLVTVSS VL: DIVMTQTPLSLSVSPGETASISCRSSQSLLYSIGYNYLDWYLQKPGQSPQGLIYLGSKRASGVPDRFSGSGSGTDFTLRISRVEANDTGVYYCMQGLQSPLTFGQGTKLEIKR ?
A. N

Q. Now give it for TB640_005 Fab-SASA VL-Q27E (Fab, V domains shown, not shown: SASA tag then His-tag) VH: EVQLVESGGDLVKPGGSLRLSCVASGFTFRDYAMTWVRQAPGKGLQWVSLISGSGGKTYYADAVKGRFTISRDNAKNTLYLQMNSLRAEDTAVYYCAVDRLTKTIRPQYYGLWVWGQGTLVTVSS VL: DIVMTQTPLSLSVSPGETASISCRSSESLLYSIGYNYLDWYLQKPGQSPQGLIYLGSKRASGVPDRFSGSGSGTDFTLRISRVEANDTGVYYCMQGLQSPLTFGQGTKLEIKR too.
A. Y
